test.system: α2C receptor (Homo sapiens, UniProt P18825)
Construct: host or cells: LM(tk-) cells, line L-α2C
Sequence (P18825 whole entry): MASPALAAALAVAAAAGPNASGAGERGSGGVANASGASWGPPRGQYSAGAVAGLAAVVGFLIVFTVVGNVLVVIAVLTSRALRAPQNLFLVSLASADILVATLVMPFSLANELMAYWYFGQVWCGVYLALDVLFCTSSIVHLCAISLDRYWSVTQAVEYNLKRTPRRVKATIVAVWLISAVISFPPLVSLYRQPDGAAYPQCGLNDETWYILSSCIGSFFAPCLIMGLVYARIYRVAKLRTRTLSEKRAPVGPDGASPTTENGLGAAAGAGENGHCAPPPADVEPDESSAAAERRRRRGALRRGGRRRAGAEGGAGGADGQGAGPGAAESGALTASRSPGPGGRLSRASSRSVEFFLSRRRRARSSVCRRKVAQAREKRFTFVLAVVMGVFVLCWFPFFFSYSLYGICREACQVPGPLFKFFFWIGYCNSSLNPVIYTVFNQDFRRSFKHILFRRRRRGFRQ
experiment.summary: Competition binding, [3H]rauwolscine, human α2C receptor
settings: [3H]rauwolscine, human α2C receptor, LM(tk−) cells; read-out: pKi alpha-2 2c (converted)
Structures can show the parent of a compound that is named as a salt.

# compound, Ki [nM]
rows = [
    ("CCC1=C(C(=O)NC)C(c2ccc([N+](=O)[O-])cc2)C(C(=O)NCCCN2CCC(c3ccccc3)(c3ccccc3)CC2)=C(CC)N1 (stereo not drawn) [Example 128]", 219),
    ("COc1cccc(C2C(C(N)=O)=C(C)NC(C)=C2C(=O)NCCCN2CCC(c3ccccc3)(c3ccccc3)CC2)c1 (stereo not drawn) [Example 117]", 759),
    ("CCC1=C(C(N)=O)C(c2ccc([N+](=O)[O-])cc2)C(C(=O)NCCCN2CCN(c3ccccc3OC)CC2)=C(CC)N1 (stereo not drawn) [Example 125]", 22.9),
    ("CC1=C(C(N)=O)C(c2ccc(S(C)(=O)=O)cc2)C(C(=O)NCCCN2CCC(c3ccccc3)(c3ccccc3)CC2)=C(C)N1 (stereo not drawn) [Example 115]", 2290),
    ("CCC1=C(C(N)=O)C(c2ccc([N+](=O)[O-])cc2)C(C(=O)NCCCN2CCC(c3ccccc3)CC2)=C(CC)N1 (stereo not drawn) [Example 121]", 191),
    ("COc1ccc(C2(c3ccccc3)CCN(CCCNC(=O)C3=C(C)NC(C)=C(C(N)=O)C3c3ccc([N+](=O)[O-])cc3)CC2)cc1 (stereo not drawn) [Example 98, hydrochloride]", 427),
]

###

test.system: α2B receptor (Homo sapiens)
Construct: host or cells: LM(tk-) cells, line L-NGC-α2B
Sequence (P18089 1-450): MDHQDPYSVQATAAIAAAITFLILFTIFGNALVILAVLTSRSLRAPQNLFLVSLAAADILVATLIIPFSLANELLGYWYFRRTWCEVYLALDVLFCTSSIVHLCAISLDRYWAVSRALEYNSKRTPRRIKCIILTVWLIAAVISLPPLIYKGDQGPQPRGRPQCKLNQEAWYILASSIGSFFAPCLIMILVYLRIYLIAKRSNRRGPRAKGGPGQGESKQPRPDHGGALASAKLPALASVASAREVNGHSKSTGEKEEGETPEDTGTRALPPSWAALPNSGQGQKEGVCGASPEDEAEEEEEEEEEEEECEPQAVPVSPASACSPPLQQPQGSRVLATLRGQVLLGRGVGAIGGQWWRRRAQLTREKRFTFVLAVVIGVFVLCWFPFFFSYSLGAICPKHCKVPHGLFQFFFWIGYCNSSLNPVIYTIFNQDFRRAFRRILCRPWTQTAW
experiment.summary: Competition binding, [3H]rauwolscine, human α2B receptor
settings: [3H]rauwolscine, human α2B receptor, LM(tk−) cells
assay.metric: pKi alpha-2 2b

# compound, assay.metric, obs.value
measured = [
    ("CC(C)C1=C(C(N)=O)C(c2ccc([N+](=O)[O-])cc2)C(C(=O)NCCCN2CCC(c3ccccc3)(c3ccccc3)CC2)=C(C(C)C)N1 (centres unmarked)", "pKi alpha-2 2b", 6.42),
    ("CCC1=C(C(N)=O)C(c2ccc([N+](=O)[O-])cc2)C(C(=O)NC2CCN(CCc3c[nH]c4ccccc34)CC2)=CN1CC (centres unmarked) [Example 123]", "pKi alpha-2 2b", 6.87),
    ("CCC1=C(C(=O)NC)C(c2ccc([N+](=O)[O-])cc2)C(C(=O)NCCCN2CCC(C#N)(c3ccccc3)CC2)=C(CC)N1 (centres unmarked)", "pKi alpha-2 2b", 5.63),
    ("CCC1=C(C(N)=O)C(c2ccc([N+](=O)[O-])cc2)C(C(=O)NCCCN2CCC(O)(c3ccccc3)CC2)=CN1CC.Cl.O (centres unmarked)", "pKi alpha-2 2b", 6.18),
    ("COC(=O)C1=C(C)NC2=C(C(=O)N(CCCN3CCC(c4ccccc4)(c4ccccc4)CC3)C2)C1c1ccc([N+](=O)[O-])cc1.Cl.O (centres unmarked)", "pKi alpha-2 2b", 6.00),
]

###

Listed here are compounds together with their documented Ki.
test.system: α1C Human Adrenergic Receptor (Homo sapiens)
Construct: The entire coding region of α1C (1401 bp); expressed in transfected cells
Sequence (P35348 1-466): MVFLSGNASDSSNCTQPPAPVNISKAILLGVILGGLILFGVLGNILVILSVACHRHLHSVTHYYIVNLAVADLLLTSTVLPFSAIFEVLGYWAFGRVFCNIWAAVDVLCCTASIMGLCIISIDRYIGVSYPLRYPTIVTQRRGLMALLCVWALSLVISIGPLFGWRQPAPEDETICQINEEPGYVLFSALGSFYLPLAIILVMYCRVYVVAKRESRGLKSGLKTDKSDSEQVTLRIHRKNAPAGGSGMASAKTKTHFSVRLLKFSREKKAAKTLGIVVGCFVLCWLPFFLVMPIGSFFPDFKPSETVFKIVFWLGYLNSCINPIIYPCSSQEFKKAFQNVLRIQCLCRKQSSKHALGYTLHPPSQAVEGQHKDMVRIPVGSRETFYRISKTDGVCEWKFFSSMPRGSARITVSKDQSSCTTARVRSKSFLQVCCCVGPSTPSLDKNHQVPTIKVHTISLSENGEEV
experiment.summary: Radioligand binding, [3H]prazosin, cloned human α1C adrenergic receptor
settings: cloned human α1C receptor, LM(tk−) cell membranes, read-out: pKi alpha-1 1c (converted)
Where a name gives a salt, the structure may show the parent alone.
assay.metric: Ki (nM)

# compound, output.unit, obs.value
measured = [
    ("CCC1=C(C(=O)NCCCN2CCC(c3ccccc3)(c3ccccc3)CC2)C(c2ccc(N)cc2)C(C(=O)OC)=C(C)N1 (stereo not drawn)", "nM", 10.2),
    ("CCNC(=O)C1=C(CC)NC(CC)=C(C(=O)NCCCN2CCC(c3ccccc3)(c3ccc(OC)cc3)CC2)C1c1ccc([N+](=O)[O-])cc1 (stereo not drawn)", "nM", 5.75),
    ("CCC1=C(C(N)=O)C(c2ccc([N+](=O)[O-])cc2)C(C(=O)NCCCN2CCN(c3ccccc3)CC2)=C(CC)N1 (stereo not drawn) [Example 104, hydrochloride hydrate]", "nM", 3.24),
]

###

test.system: α2C receptor (Homo sapiens, UniProt P18825)
Construct: host or cells: LM(tk-) cells, line L-α2C
experiment.summary: Competition binding, [3H]rauwolscine, human α2C receptor
settings: pKi alpha-2 2c
pKi: −log10 of the molar value. Counter-ions that a name gives are not always drawn.

# molecule, test.system, pKi
measured = [
    ("CCC1=C(C(N)=O)C(c2ccc([N+](=O)[O-])cc2)C(C(=O)NCCCN2CCC(c3ccc(OC)cc3)(c3ccc(OC)cc3)CC2)=C(CC)N1 (stereo not drawn) [Example 103, hydrochloride]", "α2C receptor (Homo sapiens, UniProt P18825)", 6.57),
    ("COC(=O)C1=C(C)NC(C)=C(C(=O)NCCCN2CCC(c3ccccc3)(c3ccccc3)CC2)C1c1ccc(OC)cc1 (stereo not drawn)", "α2C receptor (Homo sapiens, UniProt P18825)", 6.11),
    ("CCOC(=O)C1=C(CC(=O)NCCCN2CCC(c3ccccc3)(c3ccccc3)CC2)NC(C)=C(C(=O)OC)C1c1ccc([N+](=O)[O-])cc1 (stereo not drawn) [Example 89, fumarate salt]", "α2C receptor (Homo sapiens, UniProt P18825)", 6.30),
    ("CCC1=C(C(=O)NCCCN2CCC(c3ccccc3)(c3ccccc3)CC2)C(c2ccc(N)cc2)C(C(=O)OC)=C(C)N1 (stereo not drawn)", "α2C receptor (Homo sapiens, UniProt P18825)", 6.14),
    ("COC(=O)C1=C(C)NC(C)=C(C(=O)NCCCN2CCC(c3ccccc3)(c3ccccc3)CC2)C1c1ccc(I)cc1 (stereo not drawn)", "α2C receptor (Homo sapiens, UniProt P18825)", 6.19),
    ("COC(=O)C1=C(C)NC(C)=C(C(=O)NCCCN2CCC(c3ccccc3)(c3ccccc3)CC2)C1c1ccc(-c2ccccc2)cc1 (stereo not drawn)", "α2C receptor (Homo sapiens, UniProt P18825)", 5.91),
]

###

Listed here are compounds together with their documented log10 of Ki.
test.system: α1C Human Adrenergic Receptor (Homo sapiens, UniProt P35348)
Construct: The entire coding region of α1C (1401 bp); expressed in transfected cells
experiment.summary: Radioligand binding, [3H]prazosin, cloned human α1C adrenergic receptor
settings: cloned human receptor in LM(tk-) cell membranes, SEM and n in lines below, read-out: pKi alpha-1 1c (converted)
assay.metric: log10 of Ki (log10 of the value in nM)

# compound, log10 of Ki
records = [
    ("COC(=O)C1=C(C)NC(C)=C(C(=O)NCCCN2CCC(c3ccccc3)CC2)C1c1cccc([N+](=O)[O-])c1 (stereo not shown) [Example 30]", 0.48),
    ("COC(=O)C1=C(C)NC(C)=C(C(=O)NCCCN2CCCCC2)C1c1ccc([N+](=O)[O-])cc1 (stereo not shown) [Example 51]", 2.68),
    ("COC(=O)C1=C(C)NC(C)=C(C(=O)NCCCN2CCC(c3ccccc3)(c3ccccc3)CC2)C1c1cc(OC)c(OC)c(OC)c1 (stereo not shown) [Example 27]", 0.56),
    ("COC(=O)C1=C(C)NC(C)=C(C(=O)NCCCN2CCC(c3ccccc3)(c3ccccc3)CC2)C1c1ccc(I)cc1 (stereo not shown) [Example 13]", 0.86),
    ("COC(=O)C1=C(C)NC(C)=C(C(=O)NCCCN2CCC(c3ccccc3)(c3ccccc3)CC2)C1c1ccc(Br)cc1 (stereo not shown) [Example 15]", 0.80),
    ("COC(=O)C1=C(C)NC(C)=C(C(=O)NCCCN2CCC(c3ccccc3)(c3ccccc3)CC2)C1c1ccc(C)cc1 (stereo not shown) [Example 19]", 0.13),
    ("COC(=O)C1=C(C)NC(C)=C(C(=O)OCCCN2CCCCC2)C1c1ccc([N+](=O)[O-])cc1 (stereo not shown) [Example 50]", 1.93),
]
